Assay: NCI Yeast Anticancer Drug Screen. Data for the bub3 strain (AID 167)
Settings: S. cerevisiae bub3 mutant strain, at 5.0 µM (retest, dose inferred, filed as 0.5), stronger effect = higher value
About 79,000 compounds went through this panel and 15% of them were active in at least one assay; those are over-represented in the sample as a whole. Active and inactive are the calls of the source. No stated cut-off is given here; in the data, active means growth inhibition above about 70%; inactive means the rest.
TEST READOUT: growth inhibition

Quick note, growth inhibition for CCn1c(=O)cc2n(C)c3ccccc3n2c1=O landed at -23% (inactive)

Quick note, growth inhibition for COc1ccc(C2=CC(=O)C=CC2=O)cc1 landed at 28% (inactive)

Quick note, growth inhibition for NC(=O)C1CCCN1C(=O)C1CCCN(Cc2cc(CN3CCCC(C(=O)N4CCCC4C(N)=O)C3)cc(CN3CCCC(C(=O)N4CCCC4C(N)=O)C3)c2)C1 (stereo not given) landed at -23% (inactive)

Quick note, growth inhibition for COc1cccc2c1C(=O)c1c(O)c3c(c(O)c1C2=O)C[C@@](O)(/C(C)=N/NC(N)=S)C[C@@H]3OC1CC(N)C(O)C(C)O1 (stereo not given in full) landed at 4% (inactive)

Quick note, growth inhibition for CC(C)N=Cc1cc(Br)cc(Br)c1O.CC(C)N=Cc1cc(Br)cc(Br)c1O.[Co] landed at 98% (active)

Quick note, growth inhibition for COC(=O)/C=C(\C)Nc1ccc(Cc2ccc(Br)cc2)cc1 landed at -5% (inactive)

Quick note, growth inhibition for CCCCCCc1c(Cl)nc(Cl)nc1Cl landed at -1% (inactive)

Quick note, growth inhibition for Cc1c(-c2ccccc2)sc(/N=C/c2cc(Br)cc(Br)c2O)c1C#N landed at 5% (inactive)

Quick note, growth inhibition for C(=N\Nc1c2ccccc2nc2ccccc12)/c1ccc2c(c1)OCO2 landed at -11% (inactive)

Quick note, growth inhibition for FC1(F)C2=C(SC3=C(S2)C(F)(F)C3(F)F)C1(F)F landed at -7% (inactive)

---

Assay: NCI Yeast Anticancer Drug Screen. Data for the rad50 strain (AID 155);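 further: 0% = growth of vehicle-only cultures of the same strain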
Details: S. cerevisiae rad50 strain growth inhibition; at 5.0 µM (retest, dose inferred, filed as 0.5); stronger effect = higher value
The panel holds about 79,000 compounds, 15% with a hit somewhere; the sample as a whole holds those more often.
Would you kindly list growth inhibition for each of these molecules?
Hi! Could you send only the number? It should be in %, unit omitted.

Quick note, growth inhibition for C/C(=N\NC(=S)N1CCN(C2CCCCC2)CC1)c1ccccn1 landed at -3

Quick note, growth inhibition for CCCCOC(=O)c1nc(N(CC2CCCCC2)C(=O)NC)sc1NC(=O)NC landed at -3

Quick note, growth inhibition for O=C(c1ccccc1)c1ccc2cccc(O)c2n1 landed at 19

Quick note, growth inhibition for c1ccc(OCCCOc2ccccc2)cc1 landed at 4

Quick note, growth inhibition for CCCCCC1OC(CCCCC)OC(CCCCC)O1 (configuration not stated) landed at -10

Quick note, growth inhibition for Cc1ccc(S(=O)(=O)N/N=c2\c(C)c(C3=NS(=O)(=O)c4cc(S(N)(=O)=O)c(Cl)cc4N3)oc3c(Cl)cc(Cl)cc23)cc1 landed at 40

Quick note, growth inhibition for CCOC(CC)C(O)(c1ccc(N(C)C)cc1)c1ccc(N(C)C)cc1 (configuration not stated) landed at -2

Quick note, growth inhibition for Nc1cc(Br)c2cccnc2c1O landed at 81

Quick note, growth inhibition for CC1(C)[C@H]2CC[C@]1(C)[C@H](OC(=O)NNC(=O)O[C@@H]1C[C@@H]3CC[C@@]1(C)C3(C)C)C2 landed at 33

Quick note, growth inhibition for COc1ccc(SC2=C(N(C)C(C)=O)C(=O)c3ccccc3C2=O)cc1 landed at 98

Quick note, growth inhibition for CC(C)=NOCCOC(=O)C(c1ccccc1)c1ccccc1 landed at -4

Quick note, growth inhibition for CC(=O)Oc1c(C)cc([N+](=O)[O-])cc1[N+](=O)[O-] landed at -11

Quick note, growth inhibition for CC1(C)C(=O)C(C(Cl)(Cl)Cl)=C(Cl)C(=O)C1(Cl)Cl landed at 64

Quick note, growth inhibition for O=S(=O)(c1ccc2c(c1)CCCN2)N1CCC[C@H]2CCCC[C@@H]21 landed at 7

Quick note, growth inhibition for CSc1cc(N)nc(N)n1 landed at 3

Quick note, growth inhibition for COc1ccc(C2(O)c3ccccc3C(=O)C2c2ccccn2)cc1 (configuration not stated) landed at 99

Quick note, growth inhibition for CCCCCCCCN(CCCCCCCC)CC(O)c1cc(-c2ccc(OC)cc2)nc2cc(Cl)ccc12 (configuration not stated) landed at -2

Quick note, growth inhibition for Cc1ccc2ccc3ccc(C)nc3c2n1 landed at 94

Quick note, growth inhibition for CSC(=S)N/N=C(C)/C=C/c1ccccc1 landed at 9

Quick note, growth inhibition for CC1CC(OC(=O)Nc2ccccc2)CC(C)(C)C1 (configuration not stated) landed at -33

Quick note, growth inhibition for CCOC(=O)c1c(C)[nH]c(C(=O)C(N)C(=O)OCC)c1C (configuration not stated) landed at 8

Quick note, growth inhibition for Nc1cc(Cl)ccc1S landed at 79

Quick note, growth inhibition for CCCCCCCCCCCCNCC(=O)O landed at -2

Quick note, growth inhibition for C/C(=N\N(C)C(=S)Nc1ccccc1)c1ccccn1 landed at -2

Quick note, growth inhibition for N=c1n(CC(=O)NC23CC4CC(CC(C4)C2)C3)c2ccccc2n1Cc1ccc(Cl)cc1 landed at 33

Quick note, growth inhibition for CCN(CC)CC(O)c1ccc2cc(Cl)c3ccccc3c2c1 (configuration not stated) landed at 15

Quick note, growth inhibition for CSC(=S)CC(O)[C@@H]1CC2c3ccccc3C1c1ccccc12 (some centres not stated) landed at -5

Quick note, growth inhibition for CN(c1ccc(C(N)=O)cc1)c1c(O)c2ccccc2[nH]c1=O landed at 1

Quick note, growth inhibition for CC(C)(C)N=C=NC(c1ccccc1)(c1ccccc1)c1ccccc1 landed at -3

Quick note, growth inhibition for CCCCCCCCCCCCOC(=O)C[N+]1(C)CCCCC1 landed at 92

Quick note, growth inhibition for COc1ccccc1C(C)c1ccc2ccccc2c1C(=O)O (configuration not stated) landed at 11

Quick note, growth inhibition for NCCNC[Si](c1ccccc1)(c1ccccc1)c1ccccc1 landed at -13

Quick note, growth inhibition for CC(C)c1ncc(-c2ccccc2)cc1-c1ccccc1 landed at -2

Quick note, growth inhibition for COC(=O)C1=C(C)NC(C)=C(C(=O)OC)C1c1ccc(/[N+]([O-])=C/c2ccccc2)cc1 landed at 4

Quick note, growth inhibition for NC(=O)c1oc([N+](=O)[O-])c(-c2ccccc2)c1-c1ccccc1 landed at 9

Quick note, growth inhibition for OC1(c2ccc(Br)cc2)C2CCCCC2C2CCCCC21 (configuration not stated) landed at 36

Quick note, growth inhibition for Cc1cc(NC(=S)SCc2ccc(F)cc2)c([N+](=O)[O-])cc1C landed at 57

Quick note, growth inhibition for Cc1cc2c(cc1C)C(=O)OC2=O landed at 1

Quick note, growth inhibition for CCOC(=O)C(Br)c1nc2ccccc2[nH]c1=O (configuration not stated) landed at 2

Quick note, growth inhibition for COc1ccc(C(O)/C(=N\NC(N)=S)c2nc3ccc([N+](=O)[O-])cc3[nH]c2=O)cc1OC (configuration not stated) landed at 4

Quick note, growth inhibition for Cc1ccc(S(=O)(=O)NC(CCC(=O)Nc2ccccc2)C(=O)O)cc1 (configuration not stated) landed at -4

Quick note, growth inhibition for CCN(CC)CCCCCCNc1cc(C)cc2ccc(C)nc12 landed at 8

Quick note, growth inhibition for CCCCCCCNC1CCCc2cc(OC)ccc21 (configuration not stated) landed at 40

Quick note, growth inhibition for O=C(Cc1c[nH]c2ccccc12)N/N=C/c1ccc(Cl)cc1[N+](=O)[O-] landed at -5

Quick note, growth inhibition for C=CCOC(=O)OCCCO landed at 0

Quick note, growth inhibition for CN1CC(CN2CCCCC2)C(O)C(c2ccccc2)C1 (configuration not stated) landed at -3

Quick note, growth inhibition for O=C(CCCl)Nc1ccc(CCC(=O)c2ccccc2NC(=O)CCCl)cc1 landed at -10

---

Assay: NCI Yeast Anticancer Drug Screen. Data for the mec2-1 strain (AID 157)
Settings: S. cerevisiae mec2-1 strain, at 50.0 µM (retest, dose inferred, filed as 5.0), stronger effect = higher value
This is part of a sample that, as a whole, favours compounds with a hit. Of some 79,000 tested, about 15% had one in any assay.
Outcome: 1.0 for growth inhibition of at least 60%; 0.0 for anything lower.

Exercise: Does the reported growth inhibition for COc1cccc(/C=N/NC(=O)c2c(-c3ccccc3)noc2C)c1O fall at or above the 60% mark?
Solution: 1.0

Exercise: Does the reported growth inhibition for c1ccc(CC(Cc2ccccc2)c2cccnc2)cc1 fall at or above the 60% mark?
Solution: 1.0

Exercise: Does the reported growth inhibition for CC12C=CC(=O)C=C1CCC1C3CCC(O)(C(=O)CO)C3(C)CC(O)C12F (configuration not stated) fall at or above the 60% mark?
Solution: 1.0

Exercise: Does the reported growth inhibition for COC(C(=O)O)c1ccccc1 (configuration not stated) fall at or above the 60% mark?
Solution: 0.0

Exercise: Does the reported growth inhibition for CCN(CC)CCOc1cccc2c1C(=O)c1c(O)cccc1C2=O fall at or above the 60% mark?
Solution: 1.0

Exercise: Does the reported growth inhibition for CCOC(=O)C(NS(=O)(=O)c1ccccc1)(C(F)(F)F)P(=O)(OCC(C)C)OCC(C)C (configuration not stated) fall at or above the 60% mark?
Solution: 0.0

Exercise: Does the reported growth inhibition for CCCOCCC#N fall at or above the 60% mark?
Solution: 0.0

Exercise: Does the reported growth inhibition for CN(C)C(=S)/N=c1\ssc(=S)n1-c1ccccc1 fall at or above the 60% mark?
Solution: 1.0

Exercise: Does the reported growth inhibition for COc1ccc(/C=C2\Sc3scc(-c4ccc([N+](=O)[O-])cc4)[n+]3C2=O)cc1OC fall at or above the 60% mark?
Solution: 0.0

Exercise: Does the reported growth inhibition for C/C(=N/O)c1ccc2c(c1)C(=NO)c1cc(/C(C)=N/O)ccc1-2 fall at or above the 60% mark?
Solution: 1.0

Exercise: Does the reported growth inhibition for NC(=S)C1CCC(C2CCCCC2)CC1 (configuration not stated) fall at or above the 60% mark?
Solution: 1.0

Exercise: Does the reported growth inhibition for CCCC12C=C(OC)C(=O)C=C1OC(c1ccc3c(c1)OCO3)C2C (configuration not stated) fall at or above the 60% mark?
Solution: 1.0
